# Tested on: Sirtuin
# PROTOCOL_NOTES: Sirtuin activity in inhibitor-treated cells (Sirtuin Activity kit, lysate fluorescence)
# Assay type: cell-based, human
# REPORTED_CONDITIONS: ZR-75-1 cells, 48 h treatment, vs vehicle control; read-out: IC50, Sirtuin deacetylase activity
Recorded measurements of pIC50, one per entry
The quantity pIC50 is defined as the negative base-10 logarithm of the molar concentration.

>  <COMPOUND>
N#CC(=Cc1ccc(-c2cc(Cl)ccc2Cl)o1)C(=O)Nc1cccc2ncccc12

>  <pIC50>
4.56

$$$$

Turning now to a further compound:
-- ask // lookup pIC50 for CC(NC(=O)c1ccccc1N=Cc1c(O)ccc2ccccc12)c1ccccc1 (centres unmarked)
-- reply 4.45

* * *

# Tested on: NAT1
# PROTOCOL_NOTES: NAT1 catalytic activity (PABA N-acetylation, HPLC) in lysate of treated ZR-75-1 cells
# Format: cell-based, human
# REPORTED_CONDITIONS: ZR-75-1 cells treated 48 h; read-out: Ki, decrease of NAT1 catalytic activity (PABA N-acetylation)
The following compounds are listed with their measured pKi values.
Remember, pKi is on a log scale: it is -log10 of the molar concentration.

-- ask // lookup pKi for N#CC(=Cc1ccc(-c2cc(Cl)ccc2Cl)o1)C(=O)Nc1cccc2ncccc12 [AGK2]
-- reply 6.26

-- ask Reported pKi for NC(=O)C1CCCc2c1[nH]c1ccc(Cl)cc21 (stereo not drawn) [EX527] : what is it?
-- reply 6.41

-- ask Consider the compound shown here: CC(NC(=O)c1ccccc1N=Cc1c(O)ccc2ccccc12)c1ccccc1 (stereo not drawn) [Sirtinol] What is its recorded pKi?
-- reply 7.70

* * *

# Tested on: Sirtuin
# PROTOCOL_NOTES: Sirtuin activity in inhibitor-treated cells (Sirtuin Activity kit, lysate fluorescence)
# Format: cell-based, human
# REPORTED_CONDITIONS: read-out: IC50, Sirtuin deacetylase activity; ZR-75-1 cells, 48 h treatment, vs vehicle control
OBSERVATION_TYPE: IC50 (µM)
Unit µM implied. Number only.

-- ask Need IC50, item NC(=O)C1CCCc2c1[nH]c1ccc(Cl)cc21 (stereo not shown) [EX527]
-- reply 11.8
